assay-procedure: Volume of distribution in Sprague-Dawley rat at 1 mg/kg, iv
Type: ADME, organism-based
Set-up: dose 1 mg/kg, route intravenous
measurement-context: in vivo, read-out: Vz
The entries below come with measured Vd values attached.

compound: CC(C)C[C@H](NC(=O)[C@H](Cc1ccccc1)NC(=O)c1cnccn1)B(O)O [BORTEZOMIB]
reading-unit: L/kg
Vd: 3.74

compound: COc1ccc([C@@H](CC(=O)N[C@@H](CC(C)C)B(O)O)NC(=O)c2ccccc2)cc1
reading-unit: L/kg
Vd: 8.45

---

assay-procedure: Inhibition of chymotrypsin-like activity of human 20S proteosome assessed as hydrolysis of fluorogenic Suc-Leu-Leu-Val-Tyr-AMC substrate
pIC50: −log10 of the molar value.
The entries below come with measured pIC50 values attached.
readout-kind: pIC50

molecule: COc1ccc(C(CC(=O)N[C@@H](CC(C)C)B(O)O)NC(=O)c2cnccn2)cc1 (stereo partly drawn)
readout-kind: pIC50
quantitative-result: 6.87

molecule: COc1ccc(C(CC(=O)N[C@@H](CC(C)C)B(O)O)NC(=O)c2cccc3c2CCCC3)cc1 (stereo partly drawn)
readout-kind: pIC50
quantitative-result: 6.79

molecule: CC(C)C[C@H](NC(=O)CC(NC(=O)c1cccnc1)c1ccccc1)B(O)O (stereo partly drawn)
readout-kind: pIC50
quantitative-result: 6.42

molecule: Cc1ccc(C(CC(=O)N[C@@H](CC(C)C)B(O)O)NC(=O)c2cnccn2)cc1 (stereo partly drawn)
readout-kind: pIC50
quantitative-result: 7.16

molecule: COc1ccc(C(CC(=O)N[C@@H](CC(C)C)B(O)O)NC(=O)c2ccccc2)cc1 (stereo partly drawn)
readout-kind: pIC50
quantitative-result: 7.90

molecule: CC(C)C[C@H](NC(=O)CC(NC(=O)c1ccccc1)c1ccc(Cl)cc1)B(O)O (stereo partly drawn)
readout-kind: pIC50
quantitative-result: 7.52

molecule: Cc1ccc(C(CC(=O)N[C@@H](CC(C)C)B(O)O)NC(=O)c2cccnc2)cc1 (stereo partly drawn)
readout-kind: pIC50
quantitative-result: 6.78

molecule: COc1ccc([C@@H](CC(=O)N[C@@H](CC(C)C)B(O)O)NC(=O)c2ccccc2)cc1
readout-kind: pIC50
quantitative-result: 8.02

molecule: COc1ccc(C(CC(=O)N[C@@H](CC(C)C)B(O)O)NC(=O)c2cccnc2)cc1 (stereo partly drawn)
readout-kind: pIC50
quantitative-result: 7.46

molecule: CC(C)C[C@H](NC(=O)CC(NC(=O)c1ccccc1)c1ccccc1)B(O)O (stereo partly drawn)
readout-kind: pIC50
quantitative-result: 7.40

molecule: COc1ccc([C@H](CC(=O)N[C@@H](CC(C)C)B(O)O)NC(=O)c2ccccc2)cc1
readout-kind: pIC50
quantitative-result: 6.46

molecule: CC(C)C[C@H](NC(=O)[C@H](Cc1ccccc1)NC(=O)c1cnccn1)B(O)O [BORTEZOMIB]
readout-kind: pIC50
quantitative-result: 8.61

molecule: O=C(CC(NC(=O)c1cnccn1)c1ccccc1)N[C@@H](Cc1ccccc1)B(O)O (stereo partly drawn)
readout-kind: pIC50
quantitative-result: 6.18

molecule: Cc1ccc(C(CC(=O)N[C@@H](CC(C)C)B(O)O)NC(=O)c2ccccc2)cc1 (stereo partly drawn)
readout-kind: pIC50
quantitative-result: 7.85

molecule: Cc1ccc(C[C@H](NC(=O)CC(NC(=O)c2cnccn2)c2ccccc2)B(O)O)cc1 (stereo partly drawn)
readout-kind: pIC50
quantitative-result: 6.30

molecule: CC(C)C[C@H](NC(=O)CC(NC(=O)c1cnccn1)c1ccccc1)B(O)O (stereo partly drawn)
readout-kind: pIC50
quantitative-result: 6.87

molecule: CC(C)C[C@H](NC(=O)CC(NC(=O)c1cnccn1)c1ccc(Cl)cc1)B(O)O (stereo partly drawn)
readout-kind: pIC50
quantitative-result: 6.92

molecule: CC(C)C[C@H](NC(=O)CC(NC(=O)c1cccnc1)c1ccc(Cl)cc1)B(O)O (stereo partly drawn)
readout-kind: pIC50
quantitative-result: 6.74

---

assay-procedure: Tmax in Sprague-Dawley rat at 1 mg/kg, ig
Format: ADME, organism-based
Parameters: dose 1 mg/kg, route intragastric
measurement-context: in vivo, po

substance-smiles: CC(C)C[C@H](NC(=O)[C@H](Cc1ccccc1)NC(=O)c1cnccn1)B(O)O
Tmax, min: 13.8

---

System: A549
assay-procedure: Cytotoxicity against human A549 cells after 72 hrs by MTT assay
Type: functional, cell-based
measurement-context: A549, 72 h

compound: COc1ccc(C(CC(=O)N[C@@H](CC(C)C)B(O)O)NC(=O)c2ccccc2)cc1 (some centres undefined)
IC50: 3450 nM
//
compound: CC(C)C[C@H](NC(=O)[C@H](Cc1ccccc1)NC(=O)c1cnccn1)B(O)O
IC50: 6.7 nM
//
compound: COc1ccc([C@H](CC(=O)N[C@@H](CC(C)C)B(O)O)NC(=O)c2ccccc2)cc1
IC50: 3680 nM
//
compound: COc1ccc([C@@H](CC(=O)N[C@@H](CC(C)C)B(O)O)NC(=O)c2ccccc2)cc1
IC50: 830 nM

---

Test system: NCI-H460
assay-procedure: Cytotoxicity against human H460 cells after 72 hrs by MTT assay
Type: functional, cell-based
measurement-context: NCI-H460, 72 h
The entries below come with measured IC50 values attached.
readout-kind: IC50 (µM)

compound: COc1ccc([C@@H](CC(=O)N[C@@H](CC(C)C)B(O)O)NC(=O)c2ccccc2)cc1
tested-target: NCI-H460
readout-kind: IC50
quantitative-result: 14.6
--
compound: COc1ccc([C@H](CC(=O)N[C@@H](CC(C)C)B(O)O)NC(=O)c2ccccc2)cc1
tested-target: NCI-H460
readout-kind: IC50
quantitative-result: 25.2
--
compound: COc1ccc(C(CC(=O)N[C@@H](CC(C)C)B(O)O)NC(=O)c2ccccc2)cc1 (some centres undefined)
tested-target: NCI-H460
readout-kind: IC50
quantitative-result: 36
--
compound: CC(C)C[C@H](NC(=O)[C@H](Cc1ccccc1)NC(=O)c1cnccn1)B(O)O
tested-target: NCI-H460
readout-kind: IC50
quantitative-result: 0.78

---

The entries below come with measured IC50 values attached.
assay-procedure: Cytotoxicity against human BCG823 cells after 72 hrs by MTT assay
Type: functional, cell-based
measurement-context: BCG823, 72 h

compound: CC(C)C[C@H](NC(=O)[C@H](Cc1ccccc1)NC(=O)c1cnccn1)B(O)O
IC50 / µM: 3.29

compound: COc1ccc(C(CC(=O)N[C@@H](CC(C)C)B(O)O)NC(=O)c2ccccc2)cc1 (some centres undefined)
IC50 / µM: 30.9

compound: COc1ccc([C@H](CC(=O)N[C@@H](CC(C)C)B(O)O)NC(=O)c2ccccc2)cc1
IC50 / µM: 76.9

compound: COc1ccc([C@@H](CC(=O)N[C@@H](CC(C)C)B(O)O)NC(=O)c2ccccc2)cc1
IC50 / µM: 74.4

---

System: SW480
assay-procedure: Cytotoxicity against human SW480 cells after 72 hrs by MTT assay
Assay type: functional, cell-based
measurement-context: SW480, 72 h
pIC50: −log10 of the molar value.
readout-kind: pIC50

molecule: COc1ccc(C(CC(=O)N[C@@H](CC(C)C)B(O)O)NC(=O)c2ccccc2)cc1 (some centres undefined)
quantitative-result: 5.97
//
molecule: COc1ccc([C@@H](CC(=O)N[C@@H](CC(C)C)B(O)O)NC(=O)c2ccccc2)cc1
quantitative-result: 6.39
//
molecule: COc1ccc([C@H](CC(=O)N[C@@H](CC(C)C)B(O)O)NC(=O)c2ccccc2)cc1
quantitative-result: 5.76
//
molecule: CC(C)C[C@H](NC(=O)[C@H](Cc1ccccc1)NC(=O)c1cnccn1)B(O)O
quantitative-result: 8.21

---

assay-procedure: Cmax in Sprague-Dawley rat at 1 mg/kg, iv
Type: ADME, organism-based
Design: dose 1 mg/kg, route intravenous
measurement-context: in vivo
The entries below come with measured Cmax values attached.

substance-smiles: COc1ccc([C@@H](CC(=O)N[C@@H](CC(C)C)B(O)O)NC(=O)c2ccccc2)cc1
Cmax (ng/mL): 2930
--
substance-smiles: CC(C)C[C@H](NC(=O)[C@H](Cc1ccccc1)NC(=O)c1cnccn1)B(O)O
Cmax (ng/mL): 1080

---

assay-procedure: AUC (0 to t) in Sprague-Dawley rat at 1 mg/kg, iv
Format: ADME, organism-based
Parameters: dose 1 mg/kg, route intravenous
measurement-context: plasma
The entries below come with measured AUC(0-t) values attached.

compound: COc1ccc([C@@H](CC(=O)N[C@@H](CC(C)C)B(O)O)NC(=O)c2ccccc2)cc1
reading-unit: ng·h/mL
AUC(0-t): 933

compound: CC(C)C[C@H](NC(=O)[C@H](Cc1ccccc1)NC(=O)c1cnccn1)B(O)O [BORTEZOMIB]
reading-unit: ng·h/mL
AUC(0-t): 654

---

assay-procedure: Tmax in Sprague-Dawley rat at 1 mg/kg, iv
Format: ADME, organism-based
Set-up: dose 1 mg/kg, route intravenous
measurement-context: in vivo
The entries below come with measured Tmax values attached.

molecule: CC(C)C[C@H](NC(=O)[C@H](Cc1ccccc1)NC(=O)c1cnccn1)B(O)O [BORTEZOMIB]
Tmax: 1.8 min
//
molecule: COc1ccc([C@@H](CC(=O)N[C@@H](CC(C)C)B(O)O)NC(=O)c2ccccc2)cc1
Tmax: 1.8 min
